Here the recorded weight gain due to moisture absorption is given for each entry.
- test.protocol: Hygroscopicity experiment (dynamic vapor sorption)
- Format: physicochemical
- reported.conditions: 80.0% RH, 25 °C
property.measured: weight gain due to moisture absorption (%)

{"columns": ["molecule", "obs.value"],
 "data": [
  ["COc1ccc(Cl)cc1-c1cc(C)ncc1C(=O)Nc1nc2ncc(-c3ccc(C#N)cc3)nc2s1 [Crystal form E]", 2.5],
  ["COc1ccc(Cl)cc1-c1cc(C)ncc1C(=O)Nc1nc2ncc(-c3ccc(C#N)cc3)nc2s1 [Crystal form B]", 1.5],
  ["COc1ccc(Cl)cc1-c1cc(C)ncc1C(=O)Nc1nc2ncc(-c3ccc(C#N)cc3)nc2s1 [Crystal form A]", 1.6],
  ["COc1ccc(Cl)cc1-c1cc(C)ncc1C(=O)Nc1nc2ncc(-c3ccc(C#N)cc3)nc2s1 [Crystal form C]", -4.3]
]}

###

- test.protocol: Influencing factor experiment (stability under high temperature, high humidity, light)
- Format: physicochemical
- reported.conditions: 0 h, 0d
Where a name gives a salt, the structure may show the parent alone.
property.measured: Purity (%)

{"columns": ["compound", "property.measured", "units.text", "obs.value"],
 "data": [
  ["COc1ccc(Cl)cc1-c1cc(C)ncc1C(=O)Nc1nc2ncc(-c3ccc(C#N)cc3)nc2s1 [Crystal form A]", "Purity", "%", 99.21],
  ["COc1ccc(Cl)cc1-c1cc(C)ncc1C(=O)Nc1nc2ncc(-c3ccc(C#N)cc3)nc2s1 [Crystal form B]", "Purity", "%", 98.89],
  ["COc1ccc(Cl)cc1-c1cc(C)ncc1C(=O)Nc1nc2ncc(-c3ccc(C#N)cc3)nc2s1 [Crystal form E]", "Purity", "%", 99.39],
  ["COc1ccc(Cl)cc1-c1cc(C)ncc1C(=O)Nc1nc2ncc(-c3ccc(C#N)cc3)nc2s1 [Crystal form C]", "Purity", "%", 99.2],
  ["COc1ccc(Cl)cc1-c1cc(C)ncc1C(=O)Nc1nc2ncc(-c3ccc(C#N)cc3)nc2s1 [Amorphous form of sodium salt of compound of formula I]", "Purity", "%", 99.31]
]}

###

- System: DLD-1 BRCA2 (-/-) cells
- test.protocol: Inhibition of tumor cell proliferation (CTG, 7 days)
- Format: cell-based
- reported.conditions: Homo sapiens, DLD-1, 168 h; 7 days incubation
pIC50: −log10 of the molar value.

{"columns": ["smiles.code", "pIC50"],
 "data": [
  ["COc1ccc(Cl)cc1-c1cc(C)ncc1C(=O)Nc1nc2ncc(-c3ccc(C#N)cc3)nc2s1", "> 6.70"]
]}

###

- test.protocol: Accelerated experiment (stability at 40 °C, 75% RH)
- Format: physicochemical
- reported.conditions: 0 h, 0d
Structures can show the parent of a compound that is named as a salt.

{"columns": ["compound", "Purity [%]"],
 "data": [
  ["COc1ccc(Cl)cc1-c1cc(C)ncc1C(=O)Nc1nc2ncc(-c3ccc(C#N)cc3)nc2s1 [Crystal form A]", 99.21],
  ["COc1ccc(Cl)cc1-c1cc(C)ncc1C(=O)Nc1nc2ncc(-c3ccc(C#N)cc3)nc2s1 [Crystal form C]", 99.2],
  ["COc1ccc(Cl)cc1-c1cc(C)ncc1C(=O)Nc1nc2ncc(-c3ccc(C#N)cc3)nc2s1 [Crystal form B]", 98.89],
  ["COc1ccc(Cl)cc1-c1cc(C)ncc1C(=O)Nc1nc2ncc(-c3ccc(C#N)cc3)nc2s1 [Crystal form E]", 99.39],
  ["COc1ccc(Cl)cc1-c1cc(C)ncc1C(=O)Nc1nc2ncc(-c3ccc(C#N)cc3)nc2s1 [Amorphous form of sodium salt of compound of formula I]", 99.31]
]}

###

- test.protocol: Solubility experiment in water
- Assay type: physicochemical
- reported.conditions: 4h; 240 min
Where a name gives a salt, the structure may show the parent alone.
Here the recorded Dynamic solubility in water is given for each entry.

{"columns": ["compound", "Dynamic solubility in water [µg/mL]"],
 "data": [
  ["COc1ccc(Cl)cc1-c1cc(C)ncc1C(=O)Nc1nc2ncc(-c3ccc(C#N)cc3)nc2s1 [Crystal form A]", 1441.04],
  ["COc1ccc(Cl)cc1-c1cc(C)ncc1C(=O)Nc1nc2ncc(-c3ccc(C#N)cc3)nc2s1 [Crystal form C]", 1337.74],
  ["COc1ccc(Cl)cc1-c1cc(C)ncc1C(=O)Nc1nc2ncc(-c3ccc(C#N)cc3)nc2s1 [Amorphous form of sodium salt of compound of formula I]", 44.68],
  ["COc1ccc(Cl)cc1-c1cc(C)ncc1C(=O)Nc1nc2ncc(-c3ccc(C#N)cc3)nc2s1 [Crystal form E]", 2.26]
]}

###

Here the recorded Purity is given for each entry.
- test.protocol: Accelerated experiment (stability at 40 °C, 75% RH)
- Type: physicochemical
- reported.conditions: Accelerated (40 °C), open, 7d
Structures can show the parent of a compound that is named as a salt.

{"columns": ["molecule", "units.text", "Purity"],
 "data": [
  ["COc1ccc(Cl)cc1-c1cc(C)ncc1C(=O)Nc1nc2ncc(-c3ccc(C#N)cc3)nc2s1 [Amorphous form of sodium salt of compound of formula I]", "%", 99.33],
  ["COc1ccc(Cl)cc1-c1cc(C)ncc1C(=O)Nc1nc2ncc(-c3ccc(C#N)cc3)nc2s1 [Crystal form A]", "%", 99.21],
  ["COc1ccc(Cl)cc1-c1cc(C)ncc1C(=O)Nc1nc2ncc(-c3ccc(C#N)cc3)nc2s1 [Crystal form E]", "%", 99.49],
  ["COc1ccc(Cl)cc1-c1cc(C)ncc1C(=O)Nc1nc2ncc(-c3ccc(C#N)cc3)nc2s1 [Crystal form C]", "%", 99.20],
  ["COc1ccc(Cl)cc1-c1cc(C)ncc1C(=O)Nc1nc2ncc(-c3ccc(C#N)cc3)nc2s1 [Crystal form B]", "%", 98.84]
]}

###

- test.protocol: Accelerated experiment (stability at 40 °C, 75% RH)
- Assay type: physicochemical
- reported.conditions: Accelerated (40 °C), open, 7d
Counter-ions that a name gives are not always drawn.
property.measured: Total impurities (%)

{"columns": ["molecule", "property.measured", "obs.value"],
 "data": [
  ["COc1ccc(Cl)cc1-c1cc(C)ncc1C(=O)Nc1nc2ncc(-c3ccc(C#N)cc3)nc2s1 [Crystal form A]", "Total impurities", 0.79],
  ["COc1ccc(Cl)cc1-c1cc(C)ncc1C(=O)Nc1nc2ncc(-c3ccc(C#N)cc3)nc2s1 [Amorphous form of sodium salt of compound of formula I]", "Total impurities", 0.67],
  ["COc1ccc(Cl)cc1-c1cc(C)ncc1C(=O)Nc1nc2ncc(-c3ccc(C#N)cc3)nc2s1 [Crystal form B]", "Total impurities", 1.16],
  ["COc1ccc(Cl)cc1-c1cc(C)ncc1C(=O)Nc1nc2ncc(-c3ccc(C#N)cc3)nc2s1 [Crystal form C]", "Total impurities", 0.80],
  ["COc1ccc(Cl)cc1-c1cc(C)ncc1C(=O)Nc1nc2ncc(-c3ccc(C#N)cc3)nc2s1 [Crystal form E]", "Total impurities", 0.51]
]}

###

- target.desc: POLQ (Homo sapiens)
- Sequence (O75417 1-899): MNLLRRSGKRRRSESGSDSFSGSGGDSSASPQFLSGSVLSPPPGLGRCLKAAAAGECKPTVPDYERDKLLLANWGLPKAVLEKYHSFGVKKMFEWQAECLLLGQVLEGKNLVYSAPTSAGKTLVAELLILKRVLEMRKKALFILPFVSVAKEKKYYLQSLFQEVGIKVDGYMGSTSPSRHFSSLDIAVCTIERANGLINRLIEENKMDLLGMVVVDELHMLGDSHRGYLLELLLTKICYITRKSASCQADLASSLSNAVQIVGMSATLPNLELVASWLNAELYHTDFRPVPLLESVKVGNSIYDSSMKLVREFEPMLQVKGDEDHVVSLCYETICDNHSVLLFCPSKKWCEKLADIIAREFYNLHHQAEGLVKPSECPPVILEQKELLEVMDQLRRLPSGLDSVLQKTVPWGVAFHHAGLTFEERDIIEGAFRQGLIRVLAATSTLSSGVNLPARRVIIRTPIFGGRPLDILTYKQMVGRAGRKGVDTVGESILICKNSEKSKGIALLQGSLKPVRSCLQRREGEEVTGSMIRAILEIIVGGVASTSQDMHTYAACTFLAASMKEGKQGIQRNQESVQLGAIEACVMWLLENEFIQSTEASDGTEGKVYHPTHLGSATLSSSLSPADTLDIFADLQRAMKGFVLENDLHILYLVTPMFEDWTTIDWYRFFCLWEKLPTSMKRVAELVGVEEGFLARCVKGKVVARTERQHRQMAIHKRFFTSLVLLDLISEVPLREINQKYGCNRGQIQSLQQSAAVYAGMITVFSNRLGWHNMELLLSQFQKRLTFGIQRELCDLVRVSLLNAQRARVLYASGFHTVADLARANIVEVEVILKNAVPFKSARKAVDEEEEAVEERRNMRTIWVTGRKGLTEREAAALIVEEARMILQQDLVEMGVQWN

{"columns": ["smiles.code", "IC50"],
 "data": [
  ["COc1ccc(Cl)cc1-c1cc(C)ncc1C(=O)Nc1nc2ncc(-c3ccc(C#N)cc3)nc2s1", "< 100 nM"]
]}

###

Here the recorded Total impurities is given for each entry.
- test.protocol: Influencing factor experiment (stability under high temperature, high humidity, light)
- Format: physicochemical
- reported.conditions: 0 h, 0d
Structures can show the parent of a compound that is named as a salt.

{"columns": ["molecule", "Total impurities"],
 "data": [
  ["COc1ccc(Cl)cc1-c1cc(C)ncc1C(=O)Nc1nc2ncc(-c3ccc(C#N)cc3)nc2s1 [Crystal form E]", "0.52%"],
  ["COc1ccc(Cl)cc1-c1cc(C)ncc1C(=O)Nc1nc2ncc(-c3ccc(C#N)cc3)nc2s1 [Amorphous form of sodium salt of compound of formula I]", "0.52%"],
  ["COc1ccc(Cl)cc1-c1cc(C)ncc1C(=O)Nc1nc2ncc(-c3ccc(C#N)cc3)nc2s1 [Crystal form A]", "0.79%"],
  ["COc1ccc(Cl)cc1-c1cc(C)ncc1C(=O)Nc1nc2ncc(-c3ccc(C#N)cc3)nc2s1 [Crystal form B]", "1.11%"],
  ["COc1ccc(Cl)cc1-c1cc(C)ncc1C(=O)Nc1nc2ncc(-c3ccc(C#N)cc3)nc2s1 [Crystal form C]", "0.80%"]
]}

###

Here the recorded Dynamic solubility in water is given for each entry.
- test.protocol: Solubility experiment in water
- Assay type: physicochemical
- reported.conditions: 24h; 1440 min
Structures can show the parent of a compound that is named as a salt.

{"columns": ["molecule", "Dynamic solubility in water (µg/mL)"],
 "data": [
  ["COc1ccc(Cl)cc1-c1cc(C)ncc1C(=O)Nc1nc2ncc(-c3ccc(C#N)cc3)nc2s1 [Crystal form E]", 2.72],
  ["COc1ccc(Cl)cc1-c1cc(C)ncc1C(=O)Nc1nc2ncc(-c3ccc(C#N)cc3)nc2s1 [Crystal form A]", 27.01],
  ["COc1ccc(Cl)cc1-c1cc(C)ncc1C(=O)Nc1nc2ncc(-c3ccc(C#N)cc3)nc2s1 [Amorphous form of sodium salt of compound of formula I]", 0.72],
  ["COc1ccc(Cl)cc1-c1cc(C)ncc1C(=O)Nc1nc2ncc(-c3ccc(C#N)cc3)nc2s1 [Crystal form C]", 108.15]
]}
